# Test system: CYP3A4
# details: Lot 2B; RIS = (Emax × Cmax,ub)/(EC50 + Cmax,ub)
endpoint: RIS Based on Enzyme Activity
Form field (numeric): enter value without unit.

1. COc1ccc2[nH]c([S+]([O-])Cc3ncc(C)c(OC)c3C)nc2c1 (stereo not drawn)
0.015

Lookup: Give the measured RIS Based on Enzyme Activity of NC(=O)N1c2ccccc2C=Cc2ccccc21 [Carbamazepine] .
Found: 0.67

Lookup: Give the measured RIS Based on Enzyme Activity of "CCCN(CCC)S(=O)(=O)c1ccc(C(=O)O)cc1" .
Found: 1.5

Lookup: Give the measured RIS Based on Enzyme Activity of CCc1ccc(CCOc2ccc(CC3SC(=O)NC3=O)cc2)nc1 (stereo not drawn) .
Found: 0.12

Lookup: Give the measured RIS Based on Enzyme Activity of "O=C1NC(=O)C(c2ccccc2)(c2ccccc2)N1" .
Found: 1.8

Lookup: Give the measured RIS Based on Enzyme Activity of O=C1C(CC[S+]([O-])c2ccccc2)C(=O)N(c2ccccc2)N1c1ccccc1 (stereo not drawn) .
Found: 1.5

====

# Test system: CYP3A4
# details: Lot 3A; RIS = (Emax × Cmax,ub)/(EC50 + Cmax,ub)
endpoint: RIS Based on Enzyme Activity
Form field (numeric): enter value without unit.

Past entries and their recorded results:
1) CCCN(CCC)S(=O)(=O)c1ccc(C(=O)O)cc1
1.0
2) NC(=O)N1c2ccccc2C=Cc2ccccc21 [Carbamazepine]
0.8
3) COc1ccc2[nH]c([S+]([O-])Cc3ncc(C)c(OC)c3C)nc2c1 (stereo not drawn)
0.009

Lookup: Give the measured RIS Based on Enzyme Activity of CCc1ccc(CCOc2ccc(CC3SC(=O)NC3=O)cc2)nc1 (stereo not drawn) .
Found: 0.20

Lookup: Give the measured RIS Based on Enzyme Activity of "O=C1NC(=O)C(c2ccccc2)(c2ccccc2)N1" .
Found: 2.3

Lookup: Give the measured RIS Based on Enzyme Activity of O=C1C(CC[S+]([O-])c2ccccc2)C(=O)N(c2ccccc2)N1c1ccccc1 (stereo not drawn) .
Found: 1.4

====

# Test system: CYP3A4
# details: mean of lots 2B, 3A, 3B
endpoint: RIS Based on Enzyme Activity, Mean
Form field (numeric): enter value without unit.

Past entries and their recorded results:
1) O=C1C(CC[S+]([O-])c2ccccc2)C(=O)N(c2ccccc2)N1c1ccccc1 (stereo not drawn) [Sulfinpyrazone]
1.3
2) COc1ccc2[nH]c([S+]([O-])Cc3ncc(C)c(OC)c3C)nc2c1 (stereo not drawn) [Omeprazole]
0.0103
3) O=C1NC(=O)C(c2ccccc2)(c2ccccc2)N1 [Phenytoin]
2.2
4) NC(=O)N1c2ccccc2C=Cc2ccccc21 [Carbamazepine]
0.8
5) CCc1ccc(CCOc2ccc(CC3SC(=O)NC3=O)cc2)nc1 (stereo not drawn) [Pioglitazone]
0.2

Lookup: Give the measured RIS Based on Enzyme Activity, Mean of CCCN(CCC)S(=O)(=O)c1ccc(C(=O)O)cc1 [Probenecid] .
Found: 1.1

====

Overview of recorded Predicted % AUC Change Based on mRNA for various molecules
# System: CYP3A4
# details: Lot 3B HepatoCells; RIS calibration curve
# output: numeric value plus its unit

1) NC(=O)N1c2ccccc2C=Cc2ccccc21 [Carbamazepine]
95%

Here's the next entry for you.
Lookup: Give the measured Predicted % AUC Change Based on mRNA of CCCN(CCC)S(=O)(=O)c1ccc(C(=O)O)cc1 [Probenecid] .
Found: 95%
